Target desc: human IP6K2 (Homo sapiens, UniProt Q9UHH9)
Construct: human IP6K2 (1-426) gene; GST; made in house; host or cells: Sf-9 insect cells
Sequence (Q9UHH9 1-426): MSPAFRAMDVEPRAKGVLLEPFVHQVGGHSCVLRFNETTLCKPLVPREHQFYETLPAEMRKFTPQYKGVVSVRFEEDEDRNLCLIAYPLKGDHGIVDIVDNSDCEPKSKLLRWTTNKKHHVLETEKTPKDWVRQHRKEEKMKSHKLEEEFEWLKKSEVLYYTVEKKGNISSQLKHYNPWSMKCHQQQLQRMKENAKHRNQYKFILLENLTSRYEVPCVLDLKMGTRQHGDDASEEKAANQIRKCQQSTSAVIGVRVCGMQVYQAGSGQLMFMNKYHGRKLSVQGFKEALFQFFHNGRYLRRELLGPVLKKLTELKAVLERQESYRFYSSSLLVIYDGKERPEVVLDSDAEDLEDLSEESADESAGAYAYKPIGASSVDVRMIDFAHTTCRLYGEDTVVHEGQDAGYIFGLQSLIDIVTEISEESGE
Test description: IP6K enzyme inhibitory assay (ADP-Glo Kinase Assay), human IP6K2
Format: biochemical
Assay setup: compound concentration 0.1 μM; read-out: ADP-Glo method inhibitory rate (%) human IP6K2
Measured parameter: inhibition at 0.1 µM (%)

> print(dat)
                                   compound                               target.desc  endpoint.result
1  O=C(O)c1ccc2c(c1)[C@]1(CC[C@@H](Oc3cc(F)cc(C(F)(F)F)c3)CC1)C(=O)N2 [Example 76]  human IP6K2 (Homo sapiens, UniProt Q9UHH9)               86

(I) Cc1ccc(O[C@H]2CC[C@@]3(CC2)C(=O)Nc2ccc(C(=O)O)cc23)cc1F [Example 52]
(II) O=C(O)c1ccc2c(n1)[C@]1(CC[C@@H](Oc3ncc(Cl)cc3C(F)(F)F)CC1)C(=O)N2 [Example 99]
Qu. // returns I or II , whichever has the lower inhibition at 0.1 µM Return value: the label identifying the chosen record.
Ans. II
